# EXPERIMENT SUMMARY: chemical genetic growth profiling, strain panel (AID 1159580);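 also: tested at 20 µM; growth read once vehicle control cultures reached saturation at 30 °C; 1 = growth at the plate median or of vehicle wells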
# ASSAY CONTEXT: S. cerevisiae deletion strains, growth OD, locus YAL030W, strain snc1, stronger effect = lower value
Among all 5,500 compounds or so, about 2,000 (36%) were called active. Another 18% or so got no clear call; they are omitted. Some of the results follow.
Response field label takes yes (1) when normalized growth is strictly below 1 and no (0) in all other cases.

Problem: API: query returns whether the compound falls strictly under 1 in normalized growth. Query: `CCCCCCCCCCC[C@@H](C[C@H]1OC(=O)[C@H]1CCCCCC)OC(=O)[C@@H](CC(C)C)NC=O`
Solution: no (0)

Problem: API: query returns whether the compound falls strictly under 1 in normalized growth. Query: `COc1ccc(-c2coc3cc(O)ccc3c2=O)c(OC)c1O`
Solution: yes (1)

Problem: API: query returns whether the compound falls strictly under 1 in normalized growth. Query: `O=C(O[C@@H]1Cc2c(O)cc(O)cc2O[C@@H]1c1cc(O)c(O)c(O)c1)c1cc(O)c(O)c(O)c1`
Solution: yes (1)

Problem: API: query returns whether the compound falls strictly under 1 in normalized growth. Query: `CC[C@@]1(O)C[C@H](O)c2c(cc3c(c2O)C(=O)c2c(O)ccc(O)c2C3=O)[C@H]1C(=O)OC`
Solution: yes (1)

Problem: API: query returns whether the compound falls strictly under 1 in normalized growth. Query: `O=C(NC(=O)c1ccccc1Cl)Nc1ccc(OC(F)(F)F)cc1`
Solution: no (0)

Problem: API: query returns whether the compound falls strictly under 1 in normalized growth. Query: `CC[C@@]1(O)C[C@H](O[C@H]2C[C@H](N(C)C)[C@H](O)[C@H](C)O2)c2c(cc3c(c2O)C(=O)c2c(O)ccc(O)c2C3=O)[C@H]1C(=O)OC`
Solution: yes (1)

Problem: API: query returns whether the compound falls strictly under 1 in normalized growth. Query: `C=CCCCCCCCCCCCc1ccco1`
Solution: yes (1)

Problem: API: query returns whether the compound falls strictly under 1 in normalized growth. Query: CN(C)CCOC(c1ccc(Cl)cc1)c1ccccn1 (centres undefined)
Solution: no (0)

---

# EXPERIMENT SUMMARY: chemical genetic growth profiling, strain panel (AID 1159580)
# ASSAY CONTEXT: S. cerevisiae deletion strains, growth OD, locus YOR290C, strain snf2
About 2,000 (36%) of roughly 5,500 compounds were called active. Roughly 18% stayed inconclusive and do not appear here. No stated cut-off is given here; in the data, active means normalized growth mostly below about 0.91 (no sharp cut-off); inconclusive means no clear call, values can overlap the other calls; inactive means mostly above about 0.92. The list shows a part of the results.
Outcome field: choose from t for active, f for inactive

Problem: Just curious, what result did `C=CCc1ccc(O)c(OC)c1` get here?
Solution: f

Problem: Just curious, what result did `NCCS(=O)(=O)O` get here?
Solution: f

Problem: Just curious, what result did `CC[C@@]1(O)C[C@H](O)c2c(cc3c(c2O)C(=O)c2c(O)ccc(O)c2C3=O)[C@H]1C(=O)OC` get here?
Solution: f

Problem: Just curious, what result did N=c1ccn2c(n1)OC1C(O)C(CO)OC12 (stereo unspecified) get here?
Solution: f

Problem: Just curious, what result did `C=CCc1ccc(OC)cc1` get here?
Solution: f

Problem: Just curious, what result did O=C1CCC(N2C(=O)c3ccccc3C2=O)C(=O)N1 (stereo unspecified) get here?
Solution: f

Problem: Just curious, what result did `CC[C@@]1(O)C[C@H](O[C@H]2C[C@H](N(C)C)[C@H](O)[C@H](C)O2)c2c(cc3c(c2O)C(=O)c2c(O)ccc(O)c2C3=O)[C@H]1C(=O)OC` get here?
Solution: t

Problem: Just curious, what result did `COc1ccc(C(=O)O)cc1OC` get here?
Solution: f

Problem: Just curious, what result did `CC[C@@]1(O)C[C@H](O[C@H]2C[C@H](N(C)C)[C@H](O)[C@H](C)O2)c2c(cc3c(c2O)C(=O)c2c(O)cccc2C3=O)[C@H]1C(=O)OC` get here?
Solution: f

Problem: Just curious, what result did CC(C)NCC(O)COc1cccc2[nH]ccc12 (stereo unspecified) get here?
Solution: f

Problem: Just curious, what result did `NCCCS(=O)(=O)O` get here?
Solution: f

---

# EXPERIMENT SUMMARY: chemical genetic growth profiling, strain panel (AID 1159580);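 also: tested at 20 µM; growth read once vehicle control cultures reached saturation at 30 °C; 1 = growth at the plate median or of vehicle wells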
# ASSAY CONTEXT: S. cerevisiae deletion strains, growth OD, locus YLR384C, strain iki3, stronger effect = lower value
The whole screen tested about 5,500 compounds, of which about 2,000 (36%) were called active. Roughly 18% stayed inconclusive and do not appear here. The list shows a part of the results.
Response field label takes Criterion met when normalized growth is strictly below 1 and Criterion not met in all other cases.

Problem: API: query returns whether the compound falls strictly under 1 in normalized growth. Query: CN(C)CCOC(c1ccc(Cl)cc1)c1ccccn1 (stereo unspecified)
Solution: Criterion not met

Problem: API: query returns whether the compound falls strictly under 1 in normalized growth. Query: `COc1ccc2c(c1)OC/C(=C\c1ccc(OC)c(O)c1)C2=O`
Solution: Criterion met

Problem: API: query returns whether the compound falls strictly under 1 in normalized growth. Query: `Nc1nc(=S)c2[nH]cnc2[nH]1`
Solution: Criterion met

---

# EXPERIMENT SUMMARY: chemical genetic growth profiling, strain panel (AID 1159580);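 also: tested at 20 µM; growth read once vehicle control cultures reached saturation at 30 °C; 1 = growth at the plate median or of vehicle wells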
# ASSAY CONTEXT: S. cerevisiae deletion strains, growth OD, locus YDR069C, strain doa4, stronger effect = lower value
Among all 5,500 compounds or so, about 2,000 (36%) were called active. Inconclusive results (about 18%) are left out. This is one part of the list.
Please provide measured normalized growth for the entries that follow.
Give only the figure.

Problem: Which normalized growth value is on record for `O=C(O[C@@H]1Cc2c(O)cc(O)cc2O[C@@H]1c1ccc(O)c(O)c1)c1cc(O)c(O)c(O)c1` ?
Solution: 0.833

Problem: Which normalized growth value is on record for CN(C)CCOC(c1ccc(Cl)cc1)c1ccccn1 (stereo unspecified) ?
Solution: 1.03

Problem: Which normalized growth value is on record for `CCOC(=O)n1ccn(C)c1=S` ?
Solution: 0.994

Problem: Which normalized growth value is on record for `O=C(O[C@@H]1Cc2c(O)cc(O)cc2O[C@@H]1c1cc(O)c(O)c(O)c1)c1cc(O)c(O)c(O)c1` ?
Solution: 0.413

Problem: Which normalized growth value is on record for Clc1ccc(C(OCCN2CCCCC2)c2ccccc2)cc1 (stereo unspecified) ?
Solution: 0.969

Problem: Which normalized growth value is on record for `CN1CCC(OC(c2ccccc2)c2ccccc2)CC1` ?
Solution: 0.977

Problem: Which normalized growth value is on record for `O=C(Oc1cc(O)cc2c1C[C@@H](OC(=O)c1cc(O)c(O)c(O)c1)[C@@H](c1cc(O)c(O)c(O)c1)O2)c1cc(O)c(O)c(O)c1` ?
Solution: 1

Problem: Which normalized growth value is on record for Cc1ccccc1C(OCCN(C)C)c1ccccc1 (stereo unspecified) ?
Solution: 0.994

Problem: Which normalized growth value is on record for `O=C1NCC2(CCN(CCc3ccccc3)CC2)O1` ?
Solution: 0.983

Problem: Which normalized growth value is on record for O=C1CCC(N2C(=O)c3ccccc3C2=O)C(=O)N1 (stereo unspecified) ?
Solution: 1.02

Problem: Which normalized growth value is on record for CN(C)CCCC1(c2ccc(F)cc2)OCc2cc(C#N)ccc21 (stereo unspecified) ?
Solution: 0.983

---

# EXPERIMENT SUMMARY: chemical genetic growth profiling, strain panel (AID 1159580);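 also: tested at 20 µM; growth read once vehicle control cultures reached saturation at 30 °C; 1 = growth at the plate median or of vehicle wells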
# ASSAY CONTEXT: S. cerevisiae deletion strains, growth OD, locus YNL322C, strain KRE1 (second series)
Hit rate of the full screen: of about 5,500 compounds, about 2,000 (36%) were called active. Inconclusive results (about 18%) are left out. Rule as the data show it: active = normalized growth mostly below about 0.91 (no sharp cut-off); inconclusive = no clear call, values can overlap the other calls; inactive = mostly above about 0.92. The list shows a part of the results.
Outcome field: choose from TRUE = active, FALSE = inactive

Problem: Just curious, what result did `Oc1cc(O)c2c(c1)O[C@H](c1ccc(O)c(O)c1)[C@H](O)C2` get here?
Solution: FALSE

Problem: Just curious, what result did `COc1ccc(-c2coc3cc(O)ccc3c2=O)c(O)c1O` get here?
Solution: FALSE

Problem: Just curious, what result did `O=c1c(-c2ccc(O)cc2)coc2cc(O)ccc12` get here?
Solution: FALSE

Problem: Just curious, what result did `Oc1ccc2c(c1)O[C@H](c1ccc(O)c(O)c1)[C@@H](O)C2` get here?
Solution: FALSE

Problem: Just curious, what result did `c1ccc2c(c1)sc1ccccc12` get here?
Solution: TRUE

Problem: Just curious, what result did `COc1ccc(-c2coc3cc(O)ccc3c2=O)c(OC)c1O` get here?
Solution: FALSE
